Biological target: SIX1-Q177R homeodomain (human, UniProt Q15475 108-198, Q177R)
Sequence: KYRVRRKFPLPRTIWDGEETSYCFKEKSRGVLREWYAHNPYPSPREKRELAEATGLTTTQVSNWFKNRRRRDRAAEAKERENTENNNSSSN
Test: universal protein binding microarray; Universal all-10-mer PBM (8x60K, AMADID 030236), 300 nM GST-tagged protein, Alexa Fluor 488 anti-GST; buffer, salt, pH and temperature not stated (as in Berger); high values mean tight binding
Details: protein: ivt; tags: N-terminal GST; dsDNA, one strand shown
Whole data set: some 33,000 sequences, median “e-score” near -0.05, cut for the highest 2% near 0.38. This excerpt belongs to a sample that is enriched for the highest values.
For each entry below, report its binding signal value.
Answers are plain numbers, in E-score.

Use these answered entries as a reference point.
Sequence entry: ACTTACGC
binding signal (E-score): 0.164
//
Sequence entry: CACTCGGA
binding signal (E-score): 0.177
//
Sequence entry: ACTCCTCC
binding signal (E-score): 0.213
//
Sequence entry: CCGCGACA
binding signal (E-score): 0.241
//
Sequence entry: CGGTGACA
binding signal (E-score): 0.248
//
Sequence entry: ACTTACCC
binding signal (E-score): 0.186

Your task in this section: give binding signal for each listed record.
1. CACCTACA
2. ACCAACGA
3. CGTGATCC
4. CACAGCTA
5. AACACCGA
6. CTCCCGGC

0.41
0.187
0.195
0.177
0.469
0.152

Below are some sequences; for each one, tell me its binding signal.
1. CACCCCGA
2. CGGAACAC
3. ACCCACGA
4. CACCATTA
5. ACACCGAG

1. 0.346
2. 0.411
3. 0.153
4. 0.266
5. 0.478
